Task for the reader: assign each of the following compounds its reported MIC.
System: Candida albicans
Experiment: Antimicrobial activity against Candida albicans isolate C after 48 hrs by microdilution method
Format: functional

Take a look at these entries with their results.
Smiles code: CC[C@H](C)C[C@H](C)CCCCCCCCC(=O)N[C@H]1C[C@@H](O)[C@@H](NCCN)NC(=O)[C@@H]2[C@@H](O)CCN2C(=O)[C@H]([C@H](O)CCN)NC(=O)[C@H]([C@H](O)[C@@H](O)c2ccc(O)cc2)NC(=O)[C@@H]2C[C@@H](O)CN2C(=O)[C@H]([C@@H](C)O)NC1=O
MIC: ≤ 0.06 µg/mL
--
Smiles code: C[C@@H](c1ncncc1F)[C@](O)(Cn1cncn1)c1ccc(F)cc1F
MIC: ≤ 0.03 µg/mL

Moving on to the next compound.
// sample OC(Cn1cncn1)(Cn1cncn1)c1ccc(F)cc1F , its MIC was ≤ 0.25 µg/mL
